Measured log10 IC50 values are reported for all entries that follow.
Molecular target: human JAK2 catalytic kinase (JH1) domain (Homo sapiens (Human))
Sequence (O60674 849-1124): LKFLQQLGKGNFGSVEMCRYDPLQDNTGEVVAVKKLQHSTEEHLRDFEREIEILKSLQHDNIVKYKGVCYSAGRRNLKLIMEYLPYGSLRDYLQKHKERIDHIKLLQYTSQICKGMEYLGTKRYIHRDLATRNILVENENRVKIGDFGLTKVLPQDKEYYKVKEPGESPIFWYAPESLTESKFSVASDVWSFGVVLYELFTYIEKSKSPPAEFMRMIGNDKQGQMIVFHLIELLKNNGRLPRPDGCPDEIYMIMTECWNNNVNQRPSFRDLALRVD
Assay: ADP-Glo Kinase Assay, recombinant JAK2 catalytic kinase (JH1) domain
Assay type: biochemical
Details: recombinant JH1 domain 0.2 nM, 15 μM ATP, JAK3-974 peptide, mean, read-out: JAK2 biochem IC50 (nM) Mean
Experimental: Compounds of the disclosure were assessed for their ability to inhibit TYK2, JAK1, JAK2, and JAK3 activity. The inhibitory properties of the compounds of the disclosure described herein can be evidenced by testing in any one of the following protocols. The kinase activity of recombinantly generated catalytic kinase (also known as JH1) domain of human JAK1, JAK2, JAK3 and TYK2 were evaluated in a plate-based assay using the ADP-Glo™ Kinase Assay platform. […]
Endpoint Label: log10 IC50 (log10 of the value in nM)

>>> experimental_result("O=C(C1CC1)N1C2CCC1CN(c1ncnn3cc(-c4cnn(C(F)F)c4)cc13)C2 [Example 150]")
3.53
>>> experimental_result("O=C(C1CC1)N1C2CCC1CN(c1ncnn3cc(-c4cnn(C(F)(F)F)c4)cc13)C2")
4.00
>>> experimental_result("Cn1ncc(-c2cc3c(N4CC5CCC(C4)N5C(=O)[C@@H]4C[C@H]4F)ccnn3c2)c1F [Example 133]")
2.05
>>> experimental_result("O=C(C1CC1)N1C2CCC1CN(c1ncnn3cc(-c4ccccc4)cc13)C2")
4.00
>>> experimental_result("O=C([C@H]1C[C@@H]1CO)N1C2CCC1CN(c1ncnn3cc(-c4cnn(C(F)F)c4)cc13)C2 (racemic) [Example 38]")
3.92
>>> experimental_result("COc1cc(-c2cc3c(N4CC5CCC(C4)N5S(=O)(=O)C4CC4)ncnc3[nH]2)ccn1")
3.49
>>> experimental_result("CC1(C(=O)N2C3CCC2CN(c2ncnn4cc(-c5cnn(C(F)F)c5)cc24)C3)CCC1")
3.96
>>> experimental_result("Cc1ccc(-c2cc3c(N4CC5CCC(C4)N5C(=O)[C@@H]4C[C@H]4F)ccnn3c2)nn1")
1.69

###

Biological target: human JAK3 catalytic kinase (JH1) domain (Homo sapiens (Human), UniProt P52333)
Sequence (P52333 822-1111): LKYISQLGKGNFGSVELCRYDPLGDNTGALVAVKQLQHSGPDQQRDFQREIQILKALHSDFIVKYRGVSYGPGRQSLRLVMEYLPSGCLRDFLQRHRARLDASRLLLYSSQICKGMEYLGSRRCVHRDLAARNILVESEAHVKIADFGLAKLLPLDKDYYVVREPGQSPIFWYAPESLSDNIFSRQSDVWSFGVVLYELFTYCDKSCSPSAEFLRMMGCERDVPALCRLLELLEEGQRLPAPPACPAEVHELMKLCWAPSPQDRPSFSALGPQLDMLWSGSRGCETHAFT
Experiment: ADP-Glo Kinase Assay, recombinant JAK3 catalytic kinase (JH1) domain
Type: biochemical
Conditions: recombinant JH1 domain 0.3 nM, 4 μM ATP, JAK3-974 peptide, mean, read-out: JAK3 biochem IC50 (nM) Mean
Endpoint Label: IC50 (nM)

>>> experimental_result("O=C(C1CCC1(F)F)N1C2CCC1CN(c1ncnn3cc(-c4cnn(C(F)F)c4)cc13)C2 (stereo not shown)")
6670
>>> experimental_result("O=C([C@H]1C[C@@H]1CO)N1C2CCC1CN(c1ncnn3cc(-c4cnn(C(F)F)c4)cc13)C2 (single isomer, unassigned) [Example 39]")
6380
>>> experimental_result("Cn1cc(-c2cc3c(N4CC5CCC(C4)N5S(=O)(=O)[C@@H]4CC4(F)F)ccnn3c2)cn1")
652
>>> experimental_result("Cn1cc(-c2cc3nccc(N4CC5CCC(C4)N5C(=O)[C@@H]4C[C@H]4F)n3n2)cn1")
2920

###

Target: human TYK2 catalytic kinase (JH1) domain (Homo sapiens (Human))
Sequence (P29597 897-1176): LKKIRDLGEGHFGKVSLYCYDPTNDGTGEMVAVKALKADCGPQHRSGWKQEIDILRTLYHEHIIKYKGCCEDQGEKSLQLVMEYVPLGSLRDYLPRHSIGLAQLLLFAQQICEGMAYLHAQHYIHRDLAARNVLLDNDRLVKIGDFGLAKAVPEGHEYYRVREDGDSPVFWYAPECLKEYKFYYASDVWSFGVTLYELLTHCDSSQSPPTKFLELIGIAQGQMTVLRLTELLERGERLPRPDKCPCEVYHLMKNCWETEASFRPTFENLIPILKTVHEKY
Assay: ADP-Glo Kinase Assay, recombinant TYK2 catalytic kinase (JH1) domain
Assay type: biochemical
Details: recombinant JH1 domain 2 nM, 10 μM ATP, JAK3-974 peptide, mean, read-out: TYK2 biochem IC50 (nM) Mean
The entries below are paired with their reported log10(IC50).
Endpoint Label: log10(IC50) (log10 of the value in nM)

>>> experimental_result("O=C([C@H]1C[C@@H](C(F)(F)F)C1)N1C2CCC1CN(c1ncnn3cc(-c4cnn(C(F)F)c4)cc13)C2")
2.38
>>> experimental_result("O=C([C@@H]1C[C@H]1F)N1C2CCC1CN(c1ccnn3cc(-c4ccnc(N5CC(F)(F)C5)c4)cc13)C2")
1.93
>>> experimental_result("Cn1cc(-c2cc3c(N4CC5CCC(C4)N5C(=O)[C@@H]4C[C@H]4C#N)ncnn3c2)cn1 (single isomer, unassigned)")
2.10
>>> experimental_result("CC1C(C(=O)N2C3CCC2CN(c2ncnn4cc(-c5cnn(C(F)F)c5)cc24)C3)C1(F)F (stereo not shown)")
1.97
>>> experimental_result("Cn1cc(-c2cc3c(N4CC5CCC(C4)N5C(=O)[C@@H]4C[C@H]4F)ccnc3[nH]2)cn1")
-1.00
>>> experimental_result("COc1cc(-c2cc3c(N4CC5CCC(C4)N5S(=O)(=O)C4CC4)ccnc3[nH]2)ccn1")
1.32
>>> experimental_result("CC(C)C(=O)N1C2CCC1CN(c1ncnn3cc(-c4cnn(C)c4)cc13)C2")
2.98

Source of measurements: patent US20240360157A1
